Values compiled from patent US20180162928A1.

# MEASUREMENT TARGET: human serum albumin (human) (UniProt P02768)
# Sequence (P02768 25-609 limits assumed): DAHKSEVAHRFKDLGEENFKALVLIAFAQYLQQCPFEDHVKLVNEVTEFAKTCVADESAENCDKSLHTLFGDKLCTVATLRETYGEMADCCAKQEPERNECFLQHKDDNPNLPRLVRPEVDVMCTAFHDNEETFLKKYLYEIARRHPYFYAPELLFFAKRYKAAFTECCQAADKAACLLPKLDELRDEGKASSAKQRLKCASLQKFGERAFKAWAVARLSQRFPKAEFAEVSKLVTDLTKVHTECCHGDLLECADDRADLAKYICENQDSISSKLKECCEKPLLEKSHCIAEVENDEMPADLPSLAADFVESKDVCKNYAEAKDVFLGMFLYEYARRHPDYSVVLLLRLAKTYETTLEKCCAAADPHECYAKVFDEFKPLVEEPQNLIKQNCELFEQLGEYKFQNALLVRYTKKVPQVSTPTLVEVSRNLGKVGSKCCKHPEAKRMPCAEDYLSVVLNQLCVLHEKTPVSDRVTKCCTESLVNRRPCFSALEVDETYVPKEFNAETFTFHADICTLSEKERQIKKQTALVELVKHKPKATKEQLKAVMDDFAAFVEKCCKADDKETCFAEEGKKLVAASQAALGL
# ASSAY EXPLANATION: ELISA, lysate on plate-bound antigen
OBSERVED PROPERTY: ELISA HSA (RSU)
Respond with the bare value in RSU.

Field request: ELISA HSA (RSU) | item: ISOP121BR5P1F10 (designed binder, not shown: small tags and cut ends, FN3 domain; E. coli lysate in the ELISA) LPAPKNLVVSRVTEDSARLSWPLNLEYFDSFLIQYQESEKVGEAIVLTVPGSERSYDLTGLKPGTEYTVSIYGVYGRYGGPFVSNPLSAIFTT
720

Please answer likewise for ISOP194BR9P1D10 (designed binder, not shown: small tags and cut ends, FN3 domain; E. coli lysate in the ELISA) LPAPKNLVVSRVTEDSARLSWYEDNTERFDSFLIQYQESEKVVEAIVLTVPGSERSYDLTGLKPGTEYTVSIYGVYIRVQVLWFSNPLSAIFTT
1120

Please answer likewise for ISOP121AR5P1G10 (designed binder, not shown: small tags and cut ends, FN3 domain; E. coli lysate in the ELISA) LPAPKNLVVSRVTEDSARLSWEWLEHFDSFLIQYQESEKVGEAIVLTVPGSERSYDLTGLKPGTEYTVSIYGVYQRKVEFHSNPLSAIFTTT
1280

Please answer likewise for ISOP121FR5P1H8 (designed binder, not shown: small tags and cut ends, FN3 domain; E. coli lysate in the ELISA) LPAPKNLVVSRVTEDSARLSWTAPDAAFDSFVIYYSEQHFYGEAIVLTVPGSERSYDLTGLKPGTEYVVKIYGVKGGETSKPLSAIFTT
640

Please answer likewise for ISOP194AR9P1G7 (designed binder, not shown: small tags and cut ends, FN3 domain; E. coli lysate in the ELISA) LPAPKNLVVSRVTEDSARLSWGDDFNSEYFDSFLIQYQESEKVGEAIVLTVPGSERSYDLTGLKPGTEYTVSIYGVYTRAVVFTSNPLSAIFTT
560

Please answer likewise for ISOP194AR9P1D8 (designed binder, not shown: small tags and cut ends, FN3 domain; E. coli lysate in the ELISA) LPAPKNLVVSRVTEDSARLSWDTWNDFFDSFLIQYQESEKVGEAIVLTVPGSERSYDLTGLKPGTEYTVSIYGVYQRKVIWLSNPLSAIFTT
6560

Please answer likewise for ISOP194BR9P1F7 (designed binder, not shown: small tags and cut ends, FN3 domain; E. coli lysate in the ELISA) LPAPKNLVVSRVTEDSARLSWFNADEEYFDSFLIQYQESEKVGEAIVLTVPGSERSYDLTGLKPGTEYTVSIYGVYTRGRYEWRESNPLSAIFTT
1760

Please answer likewise for ISOP121AR5P1H1 (designed binder, not shown: small tags and cut ends, FN3 domain; E. coli lysate in the ELISA) LPAPKNLVVSRVTEDSARLSWKQATKFVFDSFLIQYQESEKVGEAIVLTVPGSERSYDLTGLKPGTEYTVSIYGVPDWFVLESNPLSAIFTT
880

Please answer likewise for ISOP121AR5P1E11 (designed binder, not shown: small tags and cut ends, FN3 domain; E. coli lysate in the ELISA) LPAPKNLVVSRVTEDSARLSWSVQTSFVFDSFLIQYQESEKVGEAIVLTVPGSERSYDLTGLKPGTEYTVSIYGVPLWHGFDSNPLSAIFTT
720
